Property: Ki (Schild plot, cAMP accumulation); scope: individual binders
# testedTarget: T1, human GIP receptor (human, UniProt P48546 22-466)
# T1 sequence (looked up): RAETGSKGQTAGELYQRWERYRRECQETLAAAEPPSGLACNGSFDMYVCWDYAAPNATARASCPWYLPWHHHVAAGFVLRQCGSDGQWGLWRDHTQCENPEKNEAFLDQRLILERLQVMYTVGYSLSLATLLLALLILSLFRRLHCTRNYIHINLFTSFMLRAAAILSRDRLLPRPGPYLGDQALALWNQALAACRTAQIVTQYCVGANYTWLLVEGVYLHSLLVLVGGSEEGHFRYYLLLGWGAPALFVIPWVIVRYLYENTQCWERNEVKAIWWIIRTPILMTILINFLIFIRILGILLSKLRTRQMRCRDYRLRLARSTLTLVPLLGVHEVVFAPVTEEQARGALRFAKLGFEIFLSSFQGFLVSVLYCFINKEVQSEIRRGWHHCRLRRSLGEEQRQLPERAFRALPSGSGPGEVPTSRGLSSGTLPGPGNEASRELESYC
# assayDetails: cell-based or functional assay
measuredQuantity: Ki (Schild plot, cAMP accumulation) (nM)

1. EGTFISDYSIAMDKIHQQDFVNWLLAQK (also called human GIP3-30) [hGIP(3-30)] ... 15
2. EGTFISDYSIAMDKIKQQDFVNWLLAQK (Synthetic variant of hGIP(3-30)) [hGIP(3-30)H18K] ... 37
3. EGTFISDYSIAMEKIAQQDFVNWLLAQK [hGIP(3-30)D15EH18A] ... 7.9
4. EGTFISDYSIAMDAIAQQDFVNWLLAQK [hGIP(3-30)K16AH18A] ... 15
5. EGTFISDYSIAMDKIAQQDFVNWLLAQK (Synthetic variant of hGIP(3-30)) [hGIP(3-30)H18A] ... 35
